I'd be grateful if you could share measured melting point for these entries.
Numbers only, in °C.

COc1ccc2c(=O)cc(-c3ccccc3)oc2c1
110

I need melting point for every entry listed below, if you could help.
1. O=C(O)c1ccccc1N/N=C1/C(=O)N(c2ccccc2)N=C1C(F)(F)F
2. CN(C)c1ccc(C=C2C=C(c3ccccc3)OC(c3ccccc3)=C2)cc1
3. O=C(/C=C/c1ccco1)c1ccc(O)cc1
4. Cc1ncc(CSSCc2cnc(C)c(O)c2CO)c(CO)c1O

result:
139
181
163
219

I need melting point for every entry listed below, if you could help.
1. C=CC(=O)NC(C)(C)CS(=O)(=O)O
2. COc1cc2c(c(O)c1OC)C(C)NCC2 (stereo unspecified)

result:
195
160
